What PBM binding z-score was measured for each of the following?
System: RARb:RXRa (NR concentration 270 nM, RXRa partner concentration 90 nM)
Assay: PBM binding z-score (relative to random genomic background probes); higher = stronger binding; sequences stand for … in GC…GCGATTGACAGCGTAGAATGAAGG
One number for each entry.

Examples from the recorded data:
* CCTCGGAGGACAGAAGCTCAGAGCTGTCCGCTTT | 0.0741
* CCTATTCGTTGACCATAAGGGCAACCGAAGCTCG | 1.82
* ACAGACAGGTAATGAAGGTAACTCAGGCTATCAT | 0.169

Can you give me PBM binding z-score for all of these, one by one?
1. CCTATTAGTTGACCATAAGGGCGACCGAAGCTCG
2. TGAATGAGGTTAAAAGATCAGGGAACGTTGCAAA
3. CGTCCAAGGTCATTGCTAGGTCAGTGAAAGCATT

## Output
0.951
1.72
5.04
